Ki overview
# assayTarget: Nuclear receptor ROR-gamma (Homo sapiens)
# Sequence (P51449 whole entry, the tested form may be a part): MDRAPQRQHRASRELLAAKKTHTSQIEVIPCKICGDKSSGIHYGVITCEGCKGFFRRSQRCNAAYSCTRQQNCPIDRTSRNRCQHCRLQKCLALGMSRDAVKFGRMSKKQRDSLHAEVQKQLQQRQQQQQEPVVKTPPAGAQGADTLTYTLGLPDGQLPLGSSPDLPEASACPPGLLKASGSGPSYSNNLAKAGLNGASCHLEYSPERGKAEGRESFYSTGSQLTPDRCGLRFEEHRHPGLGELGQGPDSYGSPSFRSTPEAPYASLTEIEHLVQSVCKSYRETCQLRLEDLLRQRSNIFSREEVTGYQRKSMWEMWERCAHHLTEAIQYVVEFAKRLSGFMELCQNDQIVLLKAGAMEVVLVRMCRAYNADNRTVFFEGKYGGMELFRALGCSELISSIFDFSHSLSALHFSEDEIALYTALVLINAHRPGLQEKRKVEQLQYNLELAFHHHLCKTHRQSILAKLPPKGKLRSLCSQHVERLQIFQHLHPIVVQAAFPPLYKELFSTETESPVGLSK
# methodNotes: Binding Assay : Compounds described herein were tested for ability to bind to RORγ in a cell-free competition assay with commercially available radio-ligand (RL), 25-hydroxy [26,27-3H]-cholesterol (PerkinElmer, Cat. #NET674250UC), for a ligand binding site on a recombinant RORγ Ligand Binding Domain (LBD) protein expressed as a 6×His-Glutathione-S-Transferase (GST) fusion. The assay was performed in 96-well SPA plates (PerkinElmer, Cat. #1450-401) in 50 mM HEPES buffer, pH 7.4, containing 150 mM NaCl, 5 mM MgCl2, 10% (v/v) glycerol, 2 mM CHAPS, 0.5 mM β-octylglucopyranoside and 5 mM DTT. Tested compounds were dissolved in DMSO, and semi-log (3.162×) serial dilutions of the compounds were prepared in the same solvent. Two μL of the DMSO solutions were mixed with 28 μL of 8.6 nM 25-hydroxy [26,27-3H]-cholesterol and 50 μL of 24 nM RORγ LBD. The plate was shaken at 700 rpm for 20 min and incubated for 10 min at rt, after which 40 μL of poly-Lys YSi SPA beads (PerkinElmer, Cat. #RPNQ0010) were added to achieve […] of the beads per well. The plate was incubated on an orbital shaker for 20 min and then for 10 min without agitation at rt. SPA signal for tritium beta radiation was registered on PerkinElmer Microbeta plate reader. Percent inhibition values were calculated based on the high signal obtained with DMSO control and the low signal observed with 10 μM standard RORγ inverse agonist T0901317 (SigmaAldrich, Cat. #T2320). The percent inhibition vs. concentration data were fit into a four-parameter model, and IC50 values were calculated from the fit as the concentrations corresponding to the inflection points on the dose-response curves.
recordedEndpoint: Ki

INSERT INTO measurements (linenotation, recordedendpoint, reportedmeasurement) VALUES
  ('CCS(=O)(=O)c1ccc([C@H](CO)NC(=O)c2ccc3c(c2)nc(C2(F)CCC2)n3Cc2cccc3c2OC(F)(F)O3)cc1', 'Ki', '< 100 nM'),
  ('CCS(=O)(=O)c1ccc([C@H](CO)NC(=O)c2ccc3c(c2)nc(C2CC2)n3Cc2cccc3c2OC(F)(F)O3)cc1', 'Ki', '< 100 nM'),
  ('CCS(=O)(=O)c1ccc(CNC(=O)c2ccc3c(c2)nc(C(F)(F)F)n3Cc2cccc3c2OC(F)(F)O3)[n+]([O-])c1', 'Ki', '< 100 nM');
